- Tested on: HT29 colon
- run_description: NCI tumour cell line growth inhibition, 48 h; in the data active = GI50 below about 0.43 µM; inactive = the rest
// one of active, inactive, no free text

Please review the following examples before continuing.
O=Cc1cn(Cc2cccc(Cl)c2)c2ccccc12 : inactive
COc1cc(C(O)c2nc3ccccc3s2)cc(OC)c1OC (configuration not stated) : inactive
CCN(CCNc1ccc(C)c2sc3cc(Cl)ccc3c(=O)c12)CC(C)O (configuration not stated) : inactive
COc1ccc(-c2cnnn2-c2cc(OC)c3c(c2)OCO3)cc1 : active
CN(c1ccc(NC(=O)Nc2ccc(OC(F)(F)F)cc2)cc1)c1ccnc(Nc2cccc(S(N)(=O)=O)c2)n1 : inactive

Q: Record lookup: outcome of this test for CC(C)(O)C1CCC(Nc2ccc3ncc(-c4cccc(C(F)(F)F)c4)n3n2)CC1 (configuration not stated) ?
Ans: inactive

Q: // param item: O=C1CC(c2ccc3c(c2)OCO3)Nc2cc3c(cc21)OCO3 (configuration not stated) ; yields the recorded call
Ans: active
